Molecular target: Recombinant HCV polymerase (Hepatitis C virus genotype 1b)
Construct: 2.5 pmoles (0.15 μg) HCV polymerase protein
Sequence (P26663 2420-3010): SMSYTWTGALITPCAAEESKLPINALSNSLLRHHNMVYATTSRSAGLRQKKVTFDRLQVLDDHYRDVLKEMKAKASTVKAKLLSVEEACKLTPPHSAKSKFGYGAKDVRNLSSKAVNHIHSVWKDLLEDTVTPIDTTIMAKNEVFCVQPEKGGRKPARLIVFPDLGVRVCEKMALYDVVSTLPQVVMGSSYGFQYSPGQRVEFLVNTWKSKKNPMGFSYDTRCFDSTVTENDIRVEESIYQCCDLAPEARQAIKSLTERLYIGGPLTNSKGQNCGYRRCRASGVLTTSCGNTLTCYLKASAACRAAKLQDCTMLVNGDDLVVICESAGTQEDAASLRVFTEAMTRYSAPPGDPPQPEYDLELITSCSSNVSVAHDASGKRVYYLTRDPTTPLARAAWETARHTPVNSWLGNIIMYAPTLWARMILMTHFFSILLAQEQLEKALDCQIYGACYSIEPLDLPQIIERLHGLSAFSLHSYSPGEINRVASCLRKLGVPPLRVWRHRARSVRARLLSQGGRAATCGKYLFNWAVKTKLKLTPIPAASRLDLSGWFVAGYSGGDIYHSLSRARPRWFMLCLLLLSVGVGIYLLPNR
Assay: HCV Polymerase Inhibition Assay
Format: biochemical
Details: primer/template-directed transcription, 30 minutes at 30° C.; category symbol
Readout label: IC50

Past entries and their recorded results:
Compound | Reported value
COc1ccc(CCC2(C3CCCC3)CC(=O)CC(=O)O2)c(C#N)c1 (stereo not shown) | 10 to 50 µM
Cc1cc(SC2=C(O)CC(CCc3ccc(O)cc3)(c3ccccc3)OC2=O)c(C(C)(C)C)cc1CO (stereo not shown) | > 50 µM
COc1ccccc1CCC1(C2CCCC2)CC(=O)CC(=O)O1 (stereo not shown) | 10 to 50 µM
COc1ccc(CCC2(C3CCCC3)CC(O)=C(Sc3nc4ccccc4[nH]3)C(=O)O2)cc1Cl (stereo not shown) | < 1 µM
COc1ccc(CCC2(C3CCCC3)CC(=O)CC(=O)O2)cc1F (stereo not shown) | < 1 µM
O=C1OC(CCc2ccc(O)cc2)(C2CCCC2)CC(O)=C1Sc1ccc2ccccc2c1 (stereo not shown) | 1 to 10 µM
O=C1CC(=O)OC(CCc2ccc(OC3CCCC3)c(F)c2)(C2CCCC2)C1 (stereo not shown) | 1 to 10 µM
Cc1cc(SC2=C(O)CC(CCC(C)C)(C3CCCC3)OC2=O)c(C(C)(C)C)cc1CO (stereo not shown) | > 50 µM
CCCN(C1=C(O)CC(C2CCCC2)(C2CCCC2)OC1=O)c1cccc(N)c1 | > 50 µM
O=C(Cc1cccnc1)C1C(=O)CC(CCc2cccc(Cl)c2)(C2CCCC2)OC1=O (stereo not shown) | 1 to 10 µM

Dear reader, for each entry below, please note its IC50.
1. COc1ccc(CCC2(C3CCCC3)CC(=O)CC(=O)O2)cn1 (stereo not shown)
2. COc1ccc(CCC2(C3CCCC3)CC(O)=C(Sc3ccc(O)cc3)C(=O)O2)cc1Cl (stereo not shown)
3. COc1ccc(CCC2(C3CCCC3)CC(=O)CC(=O)O2)cc1C (stereo not shown)
4. COc1ccc(CCC2(C3CCCC3)CC(O)=C(Sc3nc(N)c4cn[nH]c4n3)C(=O)O2)cc1 (stereo not shown)
5. CC(C)(C)OC(=O)NCC(C)(C)c1cccc(CCC2(C3CCCC3)CC(=O)CC(=O)O2)c1 (stereo not shown)
6. O=C(Cc1ccccc1)C1C(=O)CC(CCc2cccc(Cl)c2)(C2CCCC2)OC1=O (stereo not shown)

Result:
["10 to 50 µM", "< 1 µM", "1 to 10 µM", "< 1 µM", "10 to 50 µM", "10 to 50 µM"]

Dear reader, for each entry below, please note its IC50.
1. O=C1OC(CCc2ccc(O)cc2)(C2CCCC2)CC(O)=C1Sc1cccc2ccccc12 (stereo not shown)
2. O=C1C=C(O)CC(CCC2CCCC2)(C2CCCC2)O1 (stereo not shown)
3. COc1cc(OC)c(CCC2(C3CCCC3)CC(O)=C(Sc3cnccn3)C(=O)O2)cc1Cl (stereo not shown)
4. COc1ccc(CCC2(C3CCCC3)CC(=O)C(Oc3ccc(Cl)cc3)C(=O)O2)c(OC)c1 (stereo not shown)
5. CC(C)c1ccc(CCC2(C3CCCC3)CC(=O)CC(=O)O2)cc1 (stereo not shown)
6. Cc1cccc(CCC2(C3CCCC3)CC(=O)CC(=O)O2)c1 (stereo not shown)
7. COc1ccc(CCC2(C3CCCC3)CC(O)=C(Sc3nnc(C)s3)C(=O)O2)cc1Cl (stereo not shown)

Result:
1: 1 to 10 µM; 2: 10 to 50 µM; 3: < 1 µM; 4: 10 to 50 µM; 5: 1 to 10 µM; 6: 10 to 50 µM; 7: < 1 µM

Dear reader, for each entry below, please note its IC50.
1. O=C1CC(=O)OC(CCc2ccc(C(=O)N3CCC(O)CC3)cc2)(C2CCCC2)C1 (stereo not shown)
2. O=C1CC(=O)OC(CCc2ccc(F)c(Cl)c2)(C2CCCC2)C1 (stereo not shown)

Result:
> 50 µM
1 to 10 µM

Dear reader, for each entry below, please note its IC50.
1. COc1ccc(CCC2(C3CCCC3)CC(=O)C(C(=O)Cc3ccccc3)C(=O)O2)cc1 (stereo not shown)
2. Cc1cc(SC2=C(O)CC(CCc3ccc(O)cc3)(C3CCCC3)OC2=O)c(C(C)(C)C)cc1NS(=O)(=O)c1ccccc1 (racemic)

Result:
1. 10 to 50 µM
2. 1 to 10 µM

Dear reader, for each entry below, please note its IC50.
1. CCCc1ccc(CCC2(C3CCCC3)CC(=O)CC(=O)O2)cc1 (stereo not shown)
2. O=C1CC(=O)OC(CCc2ccc3c(c2)OCCO3)(C2CCCC2)C1 (stereo not shown)
3. CC(C)CCC1(C2CCCC2)CC(O)=CC(=O)O1 (stereo not shown)
4. O=C1CC(CCc2ccccc2)(C2CCCC2)OC(=O)C1Cc1ccccc1 (stereo not shown)
5. COc1ccc(CCC2(C3CCCC3)CC(O)=C(Sc3nc4ccccc4o3)C(=O)O2)cc1Cl (stereo not shown)
6. CC1(c2ccc(CCC3(C4CCCC4)CC(=O)CC(=O)O3)cc2)CC(=O)CC(=O)O1 (stereo not shown)

Result:
1 to 10 µM
1 to 10 µM
> 50 µM
10 to 50 µM
< 1 µM
< 1 µM

Short answer for COc1ccc(CCC2(C3CCCC3)CC(O)=C(Sc3nc(N)n[nH]3)C(=O)O2)cc1 (stereo not shown) : IC50 was 1 to 10 µM
